target: HLA-DR DRB1*1302 (DR13) (Homo sapiens, UniProt P01903+P01911, A100E/A169T/K41T/L162R/M171V/P40S/Q125H/Q178H/Q39Y/Q99D/R42S/S66N/T262R/V115G/W38E/Y61H); assay: biochemical; type: binding; settings: DRBI *1302
Sequence (P01903 26-254 limits assumed, other chains not shown): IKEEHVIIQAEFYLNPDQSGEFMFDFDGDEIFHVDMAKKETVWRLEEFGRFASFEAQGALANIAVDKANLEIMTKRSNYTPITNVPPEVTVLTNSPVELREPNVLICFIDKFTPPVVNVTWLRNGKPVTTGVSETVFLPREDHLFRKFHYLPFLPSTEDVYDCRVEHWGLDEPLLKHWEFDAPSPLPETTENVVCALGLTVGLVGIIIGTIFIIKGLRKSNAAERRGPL
No end group written: not given here.
Each entry below carries its recorded pIC50.
A value of pIC50 is the negative decimal logarithm of a concentration given in moles per litre.

input: # lookup: pIC50 of `KLQTYPRTNTGSGTP`
output: 6.01

Consider the record given below.
input: Look at this sequence and give its reported pIC50. `AKTFLRTLVRGVPEY`
output: 7.03

###

Listed below: pIC50 values for each entry.
target: HLA-DR DRB1*0401 (DR4) (Homo sapiens, UniProt P01903+P01911, A100K/A169T/F76Y/I96L/K127E/L162R/M171V/N62H/P40V/Q125Y/R42H/S133A/S149N/S66Y/V115G/V209L/W38E); test: biochemical; format: binding; conditions: DRB1 *0401
No end group written: not given here.
Keep it numeric: pIC50 is minus log10 of the concentration in mol/L.

input: Name the reported pIC50 value associated with the sequence `ISLLLIQSWLEPVQF`
output: 6.05

input: Subsequent entry: `RTITADTFRKLFRVY`
output: 5.98

input: Another sequence: `GKVFRGNKVKNAQLA`
output: 5.96

Next, consider the following sequence.
input: Which pIC50 is listed for `RMSSLHLKRYYGRIL` ?
output: 6.00

###

molecular target: HLA-A*3301 (Homo sapiens, UniProt P04439, A270S/D185E/E176V/E277Q/E87N/F33T/G231S/H175R/I121M/I218V/I322F/K168Q/K210R/L300P/L318F/M331R/P217A/Q86R/Q94H/R138Q/T323A/T345S/T97I/V358M/Y195H); experiment: biochemical; type: binding
pIC50: −log10 of the molar value. No end group written: not given here.
As shown below, each of these sequences has a reported pIC50 value.

As a guide, the following entries are already answered.
input: Quick one: pIC50 for `KVGPGGYPRRK` ?
output: < 5.30

input: Another: `AVPGGYPRRK`
output: < 5.25

input: Repeat for the following sequence: `VTVYGPGPGWK`
output: < 3.99

Others:
input: Requested read-out: pIC50. Entry: `GVDGLIYSK`
output: < 4.53

input: What about `VTVRVGGQLK` ?
output: < 4.14

input: One more sequence: `ALNAAAAAK`
output: < 4.14

input: Follow-up entry: `PAAYAAQGYK`
output: < 3.96

input: And `VSIRVGGQIK` ?
output: < 4.21

input: Field entry: `TLEQTVKK`
output: < 4.12

input: Do the same for `KVGSLQYLK` please
output: < 4.36

input: Moving on to the next sequence: `GVLDGLIYSK`
output: < 4.60

###

Parameter pIC50: see the listing below.
target: HLA-B*4402 (Homo sapiens, UniProt P01889, A223V/A65T/A93T/A95T/D201E/D98Y/E176V/E187L/E204Q/E69K/G107R/H137Y/K202T/L105A/L119I/N104T/N87E/Q56L/Q94N/R106L/R155S/R180D/S101N/S121R/S35A/S48T/T118I/V36M/W191S/Y140D/Y91S); test: biochemical; assay type: binding
pIC50: −log10 of the molar value. No end group written: not given here.

Worked examples, 3 sequences total:
input: What value of measured pIC50 is listed for `AEPAAEGVGA` ?
output: < 4.65

input: Queued: `PENLWVTVY`
output: < 3.78

input: Query `AEPAAEGVGAV` next
output: < 4.62

// below: pIC50 requested for another sequence
input: I'd like to know its pIC50. The sequence in question is `LDPYARVAI`
output: < 4.38
